tested on: Mycobacterium kansasii; assay: Antimycobacterial activity against Mycobacterium kansasii DSM 44162 after 7 days by two-fold serial dilution method; format: functional; conditions: DSM 44162, 168 h
Can you tell me MIC for the items I'm about to list?
Give bare numbers, in µM.

Consider the following illustrative entries.
smiles-entry	tgt	assay-readout	unit-of-measurement	result
Cc1ccc(NC(=O)c2ccc3ccccc3c2O)cc1	Mycobacterium kansasii	MIC	µM	57.7
O=C(Nc1ccccc1)c1ccc2ccccc2c1O	Mycobacterium kansasii	MIC	µM	15.2
O=C(Nc1ccc(C(F)(F)F)cc1)c1ccc2ccccc2c1O	Mycobacterium kansasii	MIC	µM	23.3

Request: What value of measured MIC is listed for "Cc1ccccc1NC(=O)c1ccc2ccccc2c1O" ?
Result: 115
